These entries and their values trace back to paper PMC7936662.

# System: thrombin-mediated platelet activation
# assay-overview: In vitro platelet activation in whole blood
# Format: cell-based
# assay-context: read-out: EC50 inhibition of platelet activation, Rat blood—Thrombin; 20% whole blood; mean ± SD
experimental-endpoint: EC50
Please format your answer as a value with the unit trailing.

Looking up [H]/N=C(/N)c1ccc(NCc2nc3cc(C(=O)N(CCC(=O)O)c4ccccn4)ccc3n2C)cc1 [Dabigatran, dabigatran] , I found its EC50 recorded as 27 nM

====

# Tested on: thrombin-mediated platelet activation
# assay-overview: In vitro platelet activation in whole blood
# Type: cell-based, human
# assay-context: read-out: EC50 inhibition of platelet activation, Human blood—Thrombin; 20% whole blood; mean ± SD
experimental-endpoint: pEC50
Please treat pEC50 as minus the base-10 logarithm of the molar concentration.

Given item [H]/N=C(/N)c1ccc(NCc2nc3cc(C(=O)N(CCC(=O)O)c4ccccn4)ccc3n2C)cc1 , the value recorded as its pEC50 is 7.46
